# target desc: human ether-à-go-go-related gene (hERG) potassium channel (human, UniProt Q12809);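 note: peak tail current of the secondary pulse compared with the same well before compound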
# Sequence (Q12809 whole entry, looked up): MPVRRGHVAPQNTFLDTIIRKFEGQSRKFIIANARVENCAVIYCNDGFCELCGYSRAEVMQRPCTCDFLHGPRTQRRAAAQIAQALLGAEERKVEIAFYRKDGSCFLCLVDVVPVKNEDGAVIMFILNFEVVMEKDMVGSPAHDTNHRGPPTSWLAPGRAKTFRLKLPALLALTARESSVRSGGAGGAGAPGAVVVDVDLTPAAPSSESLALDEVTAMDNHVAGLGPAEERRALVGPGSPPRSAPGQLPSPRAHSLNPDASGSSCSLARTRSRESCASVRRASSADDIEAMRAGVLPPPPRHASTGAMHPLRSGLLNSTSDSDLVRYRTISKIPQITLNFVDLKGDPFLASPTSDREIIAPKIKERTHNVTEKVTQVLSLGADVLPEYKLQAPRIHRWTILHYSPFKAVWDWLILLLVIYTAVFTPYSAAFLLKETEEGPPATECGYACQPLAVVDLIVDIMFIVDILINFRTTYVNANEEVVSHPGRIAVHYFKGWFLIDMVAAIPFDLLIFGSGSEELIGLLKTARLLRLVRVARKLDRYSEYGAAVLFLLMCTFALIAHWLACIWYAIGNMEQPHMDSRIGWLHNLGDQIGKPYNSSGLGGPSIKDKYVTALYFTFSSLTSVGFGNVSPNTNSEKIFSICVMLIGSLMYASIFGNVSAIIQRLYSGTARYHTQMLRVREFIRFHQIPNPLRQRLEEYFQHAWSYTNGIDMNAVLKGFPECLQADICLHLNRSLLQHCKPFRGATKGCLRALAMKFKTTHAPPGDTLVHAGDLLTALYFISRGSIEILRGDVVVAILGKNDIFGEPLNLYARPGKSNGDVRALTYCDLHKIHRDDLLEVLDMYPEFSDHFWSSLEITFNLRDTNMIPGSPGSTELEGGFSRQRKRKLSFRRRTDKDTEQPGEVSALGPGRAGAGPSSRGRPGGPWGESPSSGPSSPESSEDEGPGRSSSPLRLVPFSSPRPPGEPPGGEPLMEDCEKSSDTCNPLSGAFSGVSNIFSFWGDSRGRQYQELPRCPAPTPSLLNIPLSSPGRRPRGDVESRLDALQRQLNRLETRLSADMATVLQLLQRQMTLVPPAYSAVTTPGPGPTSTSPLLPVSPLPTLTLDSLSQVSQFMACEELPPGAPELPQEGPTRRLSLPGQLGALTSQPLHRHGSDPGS
# experimental details: primary screen, population patch clamp on CHO cells stably expressing hERG; higher = less effect of the substance
# Protocol: Briefly, Chinese hamster ovary (CHO) cells stably expressing the hERG channel were dislodged from tissue culture flasks and dispensed into PPC plates. […] During the recording, background leak currents were estimated by a 100 ms step to -80 mV from an initial holding potential of -70 mV and subtracted from the subsequent current measurement. The campaign was conducted in two phases using slight differences in recording protocol. […]
The campaign covered roughly 310,000 compounds. About 14,000 (4.5%) showed an effect of 50% or more. The effect is printed as a negative number. The entries come from a sample that favours strong results as a whole.
attribute measured: hERG current change (%, negative = inhibition) at 10uM (%)
Please respond with the number in % and leave the unit unwritten.

Recorded hERG current change (%, negative = inhibition) at 10uM, per entry:
Just so you know, measured hERG current change (%, negative = inhibition) at 10uM for CCOc1ccccc1OCCC(=O)OCC(=O)Nc1c(C)nn(-c2ccccc2)c1C came out at 1.41

Just so you know, measured hERG current change (%, negative = inhibition) at 10uM for Cc1ccc(S(=O)(=O)NC(=O)COc2ccccc2C)c(C)c1 came out at -21.9

Now let's try a different one.
Just so you know, measured hERG current change (%, negative = inhibition) at 10uM for CCCCSc1nnc(-c2ccccc2)c2ccccc12 came out at -37.3

====

This section presents compounds with their documented hERG current change (%, negative = inhibition) at 10uM values.
# target desc: human ether-à-go-go-related gene (hERG) potassium channel (human);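 note: peak tail current of the secondary pulse compared with the same well before compound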
# experimental details: primary screen, population patch clamp on CHO cells stably expressing hERG; higher = less effect of the substance
In all, about 310,000 compounds went through this assay and about 14,000 (4.5%) showed an effect of 50% or more. The effect is printed as a negative number. Shown is part of a subset that was picked to be rich in strong results.
Please respond with the number in % and leave the unit unwritten.

Recorded hERG current change (%, negative = inhibition) at 10uM, per entry:
Just so you know, measured hERG current change (%, negative = inhibition) at 10uM for CC(=O)Nc1ccc(Nc2nnc(-c3ccc(C)c(S(=O)(=O)NCC4CCCO4)c3)c3ccccc23)cc1 (centres unmarked) came out at -5.1

Just so you know, measured hERG current change (%, negative = inhibition) at 10uM for Cl.c1ccc2c(c1)oc1c(N3CCOCC3)ncnc12 came out at 9.53

Just so you know, measured hERG current change (%, negative = inhibition) at 10uM for O=C(CN1CCC(C(=O)c2ccc3c(c2)OCCO3)CC1)Nc1ccccc1F came out at -0.724

Just so you know, measured hERG current change (%, negative = inhibition) at 10uM for c1ccc(N2CCN(c3ncnc4c3oc3ccccc34)CC2)cc1 came out at 2.36

Just so you know, measured hERG current change (%, negative = inhibition) at 10uM for Cc1ccc(OCCSc2nnc(-c3ccncc3)n2C)cc1 came out at -28.9

Continuing:
Just so you know, measured hERG current change (%, negative = inhibition) at 10uM for Cc1ccc2c(c1)C(=O)N(CCCCO)C2=O came out at 20.1

Just so you know, measured hERG current change (%, negative = inhibition) at 10uM for CC(c1ccco1)N(C(=O)COc1ccc(Cl)cc1)c1ccccn1 (centres unmarked) came out at -12.7

Just so you know, measured hERG current change (%, negative = inhibition) at 10uM for COc1cc(OC)c(OC)cc1CN1CCCC(C(=O)N2CCCCC2)C1.O=C(O)C(=O)O (centres unmarked) came out at -1.45

Just so you know, measured hERG current change (%, negative = inhibition) at 10uM for Cc1cc(C)cc(OC(=O)CCN2C(=O)c3ccccc3C2=O)c1 came out at -3.19

Just so you know, measured hERG current change (%, negative = inhibition) at 10uM for CCn1c(SCC(=O)NCCc2ccc(Cl)cc2)nnc1-c1cccs1 came out at -75.8

Just so you know, measured hERG current change (%, negative = inhibition) at 10uM for CCOc1ccc(CCNC(=O)Cn2cccc2C(=O)c2ccccc2)cc1OCC came out at -2.85

Just so you know, measured hERG current change (%, negative = inhibition) at 10uM for Cc1cc(C)c2sc(N(CCCN(C)C)C(=O)c3ccc(S(=O)(=O)N4CCc5ccccc5C4)cc3)nc2c1.Cl came out at 4.44

Just so you know, measured hERG current change (%, negative = inhibition) at 10uM for Cc1cc(OCCSc2nnc(-c3cccs3)n2C)ccc1Cl came out at -22.5

Just so you know, measured hERG current change (%, negative = inhibition) at 10uM for CCn1c(SCC(=O)NCCc2ccccc2)nnc1-c1cccs1 came out at -27.6

Just so you know, measured hERG current change (%, negative = inhibition) at 10uM for O=C(c1cccs1)[C@@H]1[C@@H]2C(=O)N(Cc3ccc4c(c3)OCO4)C(=O)[C@@H]2C2c3ccccc3C=CN21 (some centres unmarked) came out at -26.7

Just so you know, measured hERG current change (%, negative = inhibition) at 10uM for O=C(NCCc1ccccc1)C1CCC(=O)N1CCc1ccccc1 (centres unmarked) came out at 8.78

====

# target desc: human ether-à-go-go-related gene (hERG) potassium channel (human, UniProt Q12809);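 note: peak tail current of the secondary pulse compared with the same well before compound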
# experimental details: primary screen, population patch clamp on CHO cells stably expressing hERG; higher = less effect of the substance
Among all 310,000 compounds or so, about 14,000 (4.5%) showed an effect of 50% or more. Effects have a minus sign here. The entries come from a sample that favours strong results as a whole.
This section presents molecules with their documented hERG current change (%, negative = inhibition) at 10uM values.
Please respond with the number in % and leave the unit unwritten.

Recorded hERG current change (%, negative = inhibition) at 10uM, per entry:
COC(=O)c1ccc(CN2CCC(Oc3cccc(C(=O)N4CCOCC4)c3)CC2)cc1 tested on human ether-à-go-go-related gene (hERG) potassium channel (human, UniProt Q12809) gave hERG current change (%, negative = inhibition) at 10uM: -22.7

Cc1cc(-c2ccc(N3CCOCC3)cc2)nc2ccccc12.Cl tested on human ether-à-go-go-related gene (hERG) potassium channel (human, UniProt Q12809) gave hERG current change (%, negative = inhibition) at 10uM: 3.53

Cc1cccc(C)c1NC(=O)CCS(=O)(=O)c1ccc(Br)cc1 tested on human ether-à-go-go-related gene (hERG) potassium channel (human, UniProt Q12809) gave hERG current change (%, negative = inhibition) at 10uM: 31.2

Cc1sc2ncnc(N3CCN(Cc4ccccc4)CC3)c2c1-c1ccccc1 tested on human ether-à-go-go-related gene (hERG) potassium channel (human, UniProt Q12809) gave hERG current change (%, negative = inhibition) at 10uM: -34.8

Continuing:
O=C(CCCN1C(=O)/C(=C/c2ccccc2)SC1=S)NCCCn1ccnc1 tested on human ether-à-go-go-related gene (hERG) potassium channel (human, UniProt Q12809) gave hERG current change (%, negative = inhibition) at 10uM: -59.9

O=C(CSc1ncnc2scc(-c3ccccc3)c12)N1CCN(Cc2ccc3c(c2)OCO3)CC1 tested on human ether-à-go-go-related gene (hERG) potassium channel (human, UniProt Q12809) gave hERG current change (%, negative = inhibition) at 10uM: -35.7

COc1ccc(/C=C2\SC(=S)N(CCC(=O)NCCCn3ccnc3)C2=O)cc1 tested on human ether-à-go-go-related gene (hERG) potassium channel (human, UniProt Q12809) gave hERG current change (%, negative = inhibition) at 10uM: -28.5

c1ccc(-c2csc3ncnc(N4CCN(Cc5ccc6c(c5)OCO6)CC4)c23)cc1 tested on human ether-à-go-go-related gene (hERG) potassium channel (human, UniProt Q12809) gave hERG current change (%, negative = inhibition) at 10uM: -57.6

COc1ccc(CN2CCN(c3ncnc4scc(-c5ccc(F)cc5)c34)CC2)cc1 tested on human ether-à-go-go-related gene (hERG) potassium channel (human, UniProt Q12809) gave hERG current change (%, negative = inhibition) at 10uM: -65.8

O=C(COc1ccccc1Br)N1CCN(C(=O)c2ccco2)CC1 tested on human ether-à-go-go-related gene (hERG) potassium channel (human, UniProt Q12809) gave hERG current change (%, negative = inhibition) at 10uM: -31.3

CCN1CCN(c2ncnc3sc(C)c(-c4ccccc4)c23)CC1 tested on human ether-à-go-go-related gene (hERG) potassium channel (human, UniProt Q12809) gave hERG current change (%, negative = inhibition) at 10uM: -57.1

Fc1ccc(CN2CCN(c3ncnc4scc(-c5ccc(F)cc5)c34)CC2)cc1 tested on human ether-à-go-go-related gene (hERG) potassium channel (human, UniProt Q12809) gave hERG current change (%, negative = inhibition) at 10uM: 5.9

Cc1cccc(OCC(=O)OCC(=O)N2CCN(C(=O)c3ccco3)CC2)c1C tested on human ether-à-go-go-related gene (hERG) potassium channel (human, UniProt Q12809) gave hERG current change (%, negative = inhibition) at 10uM: -31.8

Cc1cc(SCC(=O)OCC(=O)N(C)C2CCS(=O)(=O)C2)c(C)cc1Br (stereo not shown) tested on human ether-à-go-go-related gene (hERG) potassium channel (human, UniProt Q12809) gave hERG current change (%, negative = inhibition) at 10uM: -73.1

CN(C(=O)COC(=O)CSc1ccc(C(N)=O)cc1[N+](=O)[O-])C1CCS(=O)(=O)C1 (stereo not shown) tested on human ether-à-go-go-related gene (hERG) potassium channel (human, UniProt Q12809) gave hERG current change (%, negative = inhibition) at 10uM: -11.4

COc1ccccc1N1CCN(c2ncnc3sc(C)c(-c4ccccc4)c23)CC1 tested on human ether-à-go-go-related gene (hERG) potassium channel (human, UniProt Q12809) gave hERG current change (%, negative = inhibition) at 10uM: 14.2

Cc1cc(Br)cc(Cl)c1OCC(=O)N1CCN(C(=O)c2ccco2)CC1 tested on human ether-à-go-go-related gene (hERG) potassium channel (human, UniProt Q12809) gave hERG current change (%, negative = inhibition) at 10uM: -63.3

CCOC(=O)N1CCN(C(=O)COC(=O)CSc2cc(C)c(Br)cc2C)CC1 tested on human ether-à-go-go-related gene (hERG) potassium channel (human, UniProt Q12809) gave hERG current change (%, negative = inhibition) at 10uM: -38.5

CSc1cccc(CN2CCC(Oc3ccc(C(=O)N4CCCCC4)cc3)CC2)c1 tested on human ether-à-go-go-related gene (hERG) potassium channel (human, UniProt Q12809) gave hERG current change (%, negative = inhibition) at 10uM: -25.2

Taken from paper PMC4336329.
